Where these numbers come from: patent US20260193326A1

- measuredTarget: T1, AAV5 (adeno-associated virus serotype 5)
- T1 construct: also called adeno-associated virus serotype 5
- runDescription: SPR, AAV on CM5 chip;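 note: surface plasmon resonance with AAV amine-coupled to the chip as ligand, nanobodies injected as analyte over a concentration series, rate constants and affinity fitted from binding curves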
Kd by entry:
measurementType: Kd (nM)

binder: A4-114 (VHH) VHH: VQLQESGGGLVQTGGSLRLSCVASGSIFSINTVGWYRQAPGKQRELVATVTRAGSTWYAGSVKGRFTISRDNTKNTIYLQMNSLRPEDTAVYYCHVDELRQSTWTTSNLWGQGTQVTVSS
measurementType: Kd
recordedResult: 7.11

binder: A4-112 (VHH) VHH: VQLQESGGGLVQTGGSLRLSCIASGSIFSINTVGWYRQAPPKQRELVATVTRAGSTWYAGSVKGRFTISRDNAKNTIYLQMNTLRPEDTAVYYCHVDEVRQSTWTTSNIWGQGTQVTVSS
measurementType: Kd
recordedResult: 31.6

binder: A4-109 (VHH) VHH: VQLQESGGGLVQAGGSLRLSCAASGTIFSLNVMGWYRQAPGKQRELVASVTRGGNTNYADSVKGRFTISRDNAKTTVYLQMNSLRPEDTAVYYCHVDELRDSTWTTSNLWGQGTQVTVSS
measurementType: Kd
recordedResult: 3.74

binder: A4-104 (VHH) VHH: VQLQESGGGLVQPGGSLRLSCAASGSIFSLNSMGWYRQAPGKQRELVATITSGGSTNYAGSVKGRFTISRDNAKNTVYLQMNNLQPEDTAVYYCHVDEVRESSWTTSNLWGQGTQVTVSS
measurementType: Kd
recordedResult: 44
